The following molecules are shown together with reported melting point values.

NS(=O)(=O)c1ccc(-c2cnn(Cc3cc(F)c(F)cc3F)c(=O)c2-c2ccc(F)cc2)cc1 = 236 to 238 °C
CN(C)c1cccc(Oc2c(-c3ccc(S(C)(=O)=O)cc3)cnn(-c3cccc(Cl)c3)c2=O)c1 = 191 to 193 °C
C=C(F)C(F)(F)n1ncc(-c2ccc(S(N)(=O)=O)cc2)c(-c2ccc(F)cc2)c1=O = 230 to 232 °C

melting point recorded for this molecule, CC(C)(O)COc1c(-c2ccc(S(N)(=O)=O)cc2)cnn(-c2ccc(F)cc2)c1=O , is 155 to 158 °C

melting point recorded for this molecule, CS(=O)(=O)c1ccc(-c2cnn(-c3cccc(Cl)c3)c(=O)c2Cc2ccc(F)cc2)cc1 , is 183 to 185 °C

melting point recorded for this molecule, CSc1ccc(-c2cnn(-c3ccc(F)cc3)c(=O)c2OC(C)C)cc1 , is 135 to 137 °C

melting point recorded for this molecule, CS(=O)(=O)c1ccc(-c2cnn(-c3cccc(Cl)c3)c(=O)c2CCc2ccccc2)cc1 , is 142 to 145 °C

melting point recorded for this molecule, CC(C)CCc1c(-c2ccc(S(N)(=O)=O)cc2)cnn(-c2cccc(Cl)c2)c1=O , is 167 to 170 °C

###

Measured Endpoint: melting point

Here are 3 compounds together with their reported answers.
COC(C)CCOc1c(-c2ccc(S(C)(=O)=O)cc2)cnn(-c2ccc(F)c(F)c2)c1=O (stereo not shown) [Example 353] = 99 to 101 °C
CS(=O)(=O)c1ccc(-c2cnn(-c3ccc(F)cc3)c(=O)c2COc2ccccc2)cc1 [Example 196] = 42 to 75 °C
CS(=O)(=O)c1ccc(-c2cnn(CC(F)(F)F)c(=O)c2-c2ccc(Cl)c(Cl)c2)cc1 [Example 81] = 197 to 198 °C

Here is the next item to consider.
melting point recorded for this compound, CS(=O)(=O)c1ccc(-c2cnn(-c3cccc(Cl)c3)c(=O)c2COC(=O)c2ccccc2)cc1 [Example 208] , is 50 to 70 °C

###

The following compounds are shown together with reported melting point values.

CC(C)CCCc1c(-c2ccc(S(C)(=O)=O)cc2)cnn(-c2ccc(F)c(F)c2)c1=O [Example 444] = 111 to 113 °C
CCN(CC)c1ccc(C(=O)Cn2ncc(-c3ccc(S(C)(=O)=O)cc3)c(-c3ccc(F)cc3)c2=O)cc1 [Example 44] = 105 to 108 °C
CS(=O)(=O)c1ccc(-c2cnn(Cc3ccccc3C(F)(F)F)c(=O)c2-c2ccc(F)cc2)cc1 [Example 25] = 87 to 90 °C
CS(=O)(=O)c1ccc(-c2cnn(-c3ccsc3)c(=O)c2-c2ccc(F)cc2)cc1 [Example 179] = 200 to 202 °C
CC(C)Oc1c(-c2ccc(S(C)(=O)=O)cc2)cnn(-c2cc(F)ccc2F)c1=O [Example 204] = 161 to 164 °C
CC1(COc2c(-c3ccc(S(C)(=O)=O)cc3)cnn(CC(F)(F)F)c2=O)CC1 [Example 279] = 98 to 99 °C

melting point recorded for this compound, CS(=O)(=O)c1ccc(-c2cnn(-c3cccc(Cl)c3)c(=O)c2Cc2ccccc2)cc1 [Example 367] , is 174 to 177 °C

melting point recorded for this compound, Cc1ccc(-c2c(-c3ccc(S(C)(=O)=O)cc3)cnn(CC(F)(F)F)c2=O)cc1 [Example 79] , is 154 to 156 °C

###

The following compounds are shown together with reported inhibition at 1 µM values.
target: recombinant human Cox-2 (r-hu Cox-2) (Homo sapiens); construct: made in house; host or cells: baculovirus/Sf9 insect cells (microsomes); experiment: Recombinant human PGHS-2 enzyme assay (RHUCX2); type: biochemical; conditions: 1 μM; read-out: RHUCX2 % Inh. at Dose
Write it as a number; the unit % goes unstated.

CS(=O)(=O)c1ccc(-c2cnn(-c3cccc(Cl)c3)c(=O)c2OCC2CC2)cc1 = 85
CC(C)CCOc1c(-c2ccc(S(N)(=O)=O)cc2)cnn(-c2cccc(Cl)c2)c1=O = 94
CC(C)=CCOc1c(-c2ccc(S(C)(=O)=O)cc2)cnn(-c2cccc(Cl)c2)c1=O = 87
CS(=O)(=O)c1ccc(-c2cnn(CC3CC3)c(=O)c2-c2ccc(F)cc2)cc1 = 91
CS(=O)(=O)c1ccc(-c2cnn(C3C4CC5CC(C4)CC3C5)c(=O)c2-c2ccc(F)cc2)cc1 (centres unmarked) = 88
CS(=O)(=O)c1ccc(-c2cnn(-c3ccc(F)c(F)c3)c(=O)c2C#Cc2ccccc2)cc1 = 84
CC(C)COc1c(-c2ccc(S(N)(=O)=O)cc2)cnn(-c2ccc(F)cc2)c1=O = 93

Here is the next item to consider.
inhibition at 1 µM recorded for this compound, CC(C)(C)COc1c(-c2ccc(S(N)(=O)=O)cc2)cnn(-c2ccc(F)c(F)c2)c1=O , is 100

###

target: recombinant human Cox-2 (r-hu Cox-2) (Homo sapiens, UniProt P35354); test: Recombinant human PGHS-2 enzyme assay (RHUCX2); conditions: read-out: RHUCX2 IC50 (parenthetical value)
Sequence (P35354 18-604): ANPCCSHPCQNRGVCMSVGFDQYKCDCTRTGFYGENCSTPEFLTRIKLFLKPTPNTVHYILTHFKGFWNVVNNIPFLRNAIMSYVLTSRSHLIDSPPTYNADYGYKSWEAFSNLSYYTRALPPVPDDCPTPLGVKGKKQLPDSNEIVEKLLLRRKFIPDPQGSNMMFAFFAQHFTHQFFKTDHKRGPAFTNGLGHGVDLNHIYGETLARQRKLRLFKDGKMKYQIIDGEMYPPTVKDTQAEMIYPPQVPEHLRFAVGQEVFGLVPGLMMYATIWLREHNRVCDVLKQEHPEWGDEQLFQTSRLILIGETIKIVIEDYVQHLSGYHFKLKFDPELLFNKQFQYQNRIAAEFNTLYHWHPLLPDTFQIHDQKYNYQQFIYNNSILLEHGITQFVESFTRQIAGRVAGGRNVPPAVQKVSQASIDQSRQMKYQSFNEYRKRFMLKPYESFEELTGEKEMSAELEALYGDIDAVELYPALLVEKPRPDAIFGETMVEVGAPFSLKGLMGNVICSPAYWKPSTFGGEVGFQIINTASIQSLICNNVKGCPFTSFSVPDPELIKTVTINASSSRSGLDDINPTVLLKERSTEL
Measured Endpoint: IC50 (nM)
Write it as a number; the unit nM goes unstated.

CC(C)CC(C)Oc1c(-c2ccc(S(C)(=O)=O)cc2)cnn(-c2ccc(F)c(F)c2)c1=O (centres unmarked) = 127
CS(=O)(=O)c1ccc(-c2cnn(Cc3ccccc3)c(=O)c2-c2cccc([N+](=O)[O-])c2)cc1 = 192
CS(=O)(=O)c1ccc(-c2cnn(CC(F)(F)F)c(=O)c2-c2ccc(F)cc2)cc1 = 920
C=Cc1ccc(-c2c(-c3ccc(S(C)(=O)=O)cc3)cnn(Cc3ccccc3)c2=O)cc1 = 58
CS(=O)(=O)c1ccc(-c2cnn(Cc3ncc(Cl)s3)c(=O)c2-c2ccc(F)cc2)cc1 = 440
Cc1cc(-c2c(-c3ccc(S(N)(=O)=O)cc3)cnn(-c3ccc(F)c(F)c3)c2=O)ccc1F = 221
COC(C)CCOc1c(-c2ccc(S(C)(=O)=O)cc2)cnn(-c2ccc(F)c(F)c2)c1=O (centres unmarked) = 826

Here is the next item to consider.
IC50 recorded for this molecule, CS(=O)(=O)c1ccc(-c2cnn(CC(F)(F)F)c(=O)c2C2CCCCC2)cc1 , is 297

###

Target: Human Whole Platelet Cyclooxygenase-1 (Homo sapiens)
Sequence (P23219 24-599): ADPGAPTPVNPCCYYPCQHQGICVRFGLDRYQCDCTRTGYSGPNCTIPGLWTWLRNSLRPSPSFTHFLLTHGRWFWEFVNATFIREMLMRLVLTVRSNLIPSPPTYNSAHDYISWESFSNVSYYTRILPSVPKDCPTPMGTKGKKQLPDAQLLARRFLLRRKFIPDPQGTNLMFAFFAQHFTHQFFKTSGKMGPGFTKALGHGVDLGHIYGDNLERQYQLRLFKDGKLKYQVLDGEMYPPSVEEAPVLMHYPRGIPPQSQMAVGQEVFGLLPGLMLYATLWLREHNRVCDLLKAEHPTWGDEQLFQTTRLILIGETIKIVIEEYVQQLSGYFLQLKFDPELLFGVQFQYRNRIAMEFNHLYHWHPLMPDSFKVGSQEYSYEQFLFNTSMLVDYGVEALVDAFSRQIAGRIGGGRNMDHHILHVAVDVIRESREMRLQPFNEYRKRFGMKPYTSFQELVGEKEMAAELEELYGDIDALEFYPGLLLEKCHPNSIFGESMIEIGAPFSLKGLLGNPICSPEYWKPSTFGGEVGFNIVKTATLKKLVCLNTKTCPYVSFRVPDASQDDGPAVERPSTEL
Assay: Human Whole Platelet Cyclooxygenase-1 assay (HWPX)
Conditions: read-out: HWPX IC50 (parenthetical value)
Description: Blood from normal healthy volunteers is collected into tubes containing ACD (acid citrate dextrose) as the anticoagulant. This blood is centrifuged at 175×g to prepare platelet rich plasma. […] The reaction is stopped by adding cold 6 mM EDTA, the incubation mixture is centrifuged at 220×g, and the supernatants are then analyzed for thromboxane using a commercial kit from Cayman Chemical (Ann Arbor, Mich.
Measured Endpoint: IC50 (µM)
Write it as a number; the unit µM goes unstated.

Here are 2 compounds together with their reported answers.
CC(C)(O)CCOc1c(-c2ccc(S(C)(=O)=O)cc2)cnn(-c2ccc(F)cc2)c1=O = 22.4
CC(C)COc1c(-c2ccc(S(N)(=O)=O)cc2)cnn(-c2ccc(F)cc2)c1=O = 13.8

IC50 recorded for this compound, CC(C)COc1c(-c2ccc(S(N)(=O)=O)cc2)cnn(CC(F)(F)F)c1=O , is 40

IC50 recorded for this compound, CC(C)CCOc1c(-c2ccc(S(C)(=O)=O)cc2)cnn(-c2cccc(Cl)c2)c1=O , is 0.393

IC50 recorded for this compound, CS(=O)(=O)c1ccc(-c2cnn(-c3ccc(F)cc3)c(=O)c2Oc2ccc(F)cc2)cc1 , is 8

IC50 recorded for this compound, CS(=O)(=O)c1ccc(-c2cnn(-c3ccc(F)c(F)c3)c(=O)c2-c2ccc(Cl)cc2)cc1 , is 17.5

IC50 recorded for this compound, NS(=O)(=O)c1ccc(-c2cnn(-c3ccc(F)c(Cl)c3)c(=O)c2-c2ccc(F)cc2)cc1 , is 0.32

IC50 recorded for this compound, CC(C)CCc1c(-c2ccc(S(C)(=O)=O)cc2)cnn(-c2ccc(F)c(F)c2)c1=O , is 4.7

###

The following compounds are shown together with reported melting point values.

CS(=O)(=O)c1ccc(-c2cnn(Cc3ccncc3)c(=O)c2-c2ccc(F)cc2)cc1 = 153 to 156 °C
CC(C)COc1c(-c2ccc(S(N)(=O)=O)cc2)cnn(-c2ccc(F)c(F)c2)c1=O = 169 to 171 °C
NS(=O)(=O)c1ccc(-c2cnn(-c3ccc(F)c(Cl)c3)c(=O)c2-c2ccc(F)cc2)cc1 = 208 to 210 °C
C/C(=C\Cn1ncc(-c2ccc(S(N)(=O)=O)cc2)c(-c2ccc(F)cc2)c1=O)C(F)(F)F = 155 to 157 °C
CS(=O)(=O)c1ccc(-c2cnn(Cc3ccccc3)c(=O)c2-c2ccc3c(c2)COC3=O)cc1 = > 250 °C
COc1cc(Nc2c(-c3ccc(S(C)(=O)=O)cc3)cnn(CC(F)(F)F)c2=O)cc(C(F)(F)F)c1 = 206 to 208 °C
COc1ccc(-n2ncc(-c3ccc(S(C)(=O)=O)cc3)c(-c3ccc(F)cc3)c2=O)cc1F = 97 to 101 °C
CS(=O)(=O)c1ccc(-c2cnn(-c3ccc(F)c(F)c3)c(=O)c2Oc2ccc(Cl)cc2)cc1 = 192 to 194 °C
CS(=O)(=O)c1ccc(-c2cnn(CC(F)(F)F)c(=O)c2C2CCCCC2)cc1 = 215 to 218 °C
CC(C)CCOc1c(-c2ccc(S(N)(=O)=O)cc2)cnn(-c2cccc(Cl)c2)c1=O = 137 to 139 °C

melting point recorded for this compound, CC(C)CC(C)Oc1c(-c2ccc(S(C)(=O)=O)cc2)cnn(-c2ccc(F)c(F)c2)c1=O (stereo not shown) , is 132 to 133 °C

melting point recorded for this compound, CS(=O)(=O)c1ccc(-c2cnn(Cc3ccccc3)c(=O)c2Cl)cc1 , is 166 to 167 °C
